# System Name: TcRPA1 DBD-AB T105S (Trypanosoma cruzi, UniProt Q4DXC9 2-257, T105S)
# Test Name: MST; 20 mM Tris pH 7.5, 10 mM NaCl, 10 mM MgCl2, 2 mM DTT, 10% glycerol, 0.1 mg/ml BSA, 15 min, room temperature; EMSA 2 nM probe (gel at 4 C), MST 10 nM probe
# Condition Info: protein: recombinant; tags: N-term 6xHis; label: 5' Cy5 (MST) or 5' IRDye800 (EMSA); single strand

{"columns": ["Binder", "Units Label", "Kd"],
 "data": [
  ["TTTTTTTTTTTTTTTTTTTTTTTTTTTTTTTT (ssDNA) [dT32]", "nM", 52.4]
]}

The values you see were collected from paper PMC10359466.
